The reported measurements were obtained from paper PMC8580884.

Target: CYP1A2 (Homo sapiens, UniProt P05177)
Construct: native enzyme in pooled human liver microsomes (IC50) or human-induced hepatocytes hiHeps (Km); read by phenacetin to acetaminophen
Sequence (P05177 2-516): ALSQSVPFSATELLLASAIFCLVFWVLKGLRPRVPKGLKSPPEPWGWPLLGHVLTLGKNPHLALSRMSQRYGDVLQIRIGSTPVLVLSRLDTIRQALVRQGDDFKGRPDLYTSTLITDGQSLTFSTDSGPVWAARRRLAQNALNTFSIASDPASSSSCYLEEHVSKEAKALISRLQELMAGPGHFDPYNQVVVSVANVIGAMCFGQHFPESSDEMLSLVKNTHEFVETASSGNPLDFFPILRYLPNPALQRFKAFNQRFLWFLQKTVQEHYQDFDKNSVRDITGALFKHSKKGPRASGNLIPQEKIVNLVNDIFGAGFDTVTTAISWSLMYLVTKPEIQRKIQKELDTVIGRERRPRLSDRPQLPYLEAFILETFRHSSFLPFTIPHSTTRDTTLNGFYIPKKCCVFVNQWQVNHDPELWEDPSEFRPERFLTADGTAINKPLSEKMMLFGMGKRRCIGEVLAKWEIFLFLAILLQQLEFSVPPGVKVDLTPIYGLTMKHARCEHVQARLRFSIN
Assay: human liver microsomes, cocktail probe assay, UPLC-MS/MS
Format: biochemical
Details: read-out: IC50 (μM) / HLM
From the text: human liver microsomes, cocktail probe assay, UPLC-MS/MS on CYP1A2
endpointLabel: IC50 (µM)
# number only, unit µM dropped from output

Query: Report IC50, nothing else, for this compound: "COc1cc(/C=C/C(=O)CC(=O)/C=C/c2ccc(O)c(OC)c2)ccc1O"
Response: 50.1

====

target: CYP2B6 (Homo sapiens, UniProt P20813); construct: native enzyme in human liver microsomes (IC50) or human-induced hepatocytes hiHeps (Km); read by bupropion to hydroxybupropion; test: human liver microsomes, cocktail probe assay, UPLC-MS/MS; assay type: biochemical; details: read-out: IC50 (μM) / HLM
Sequence (P20813 whole entry): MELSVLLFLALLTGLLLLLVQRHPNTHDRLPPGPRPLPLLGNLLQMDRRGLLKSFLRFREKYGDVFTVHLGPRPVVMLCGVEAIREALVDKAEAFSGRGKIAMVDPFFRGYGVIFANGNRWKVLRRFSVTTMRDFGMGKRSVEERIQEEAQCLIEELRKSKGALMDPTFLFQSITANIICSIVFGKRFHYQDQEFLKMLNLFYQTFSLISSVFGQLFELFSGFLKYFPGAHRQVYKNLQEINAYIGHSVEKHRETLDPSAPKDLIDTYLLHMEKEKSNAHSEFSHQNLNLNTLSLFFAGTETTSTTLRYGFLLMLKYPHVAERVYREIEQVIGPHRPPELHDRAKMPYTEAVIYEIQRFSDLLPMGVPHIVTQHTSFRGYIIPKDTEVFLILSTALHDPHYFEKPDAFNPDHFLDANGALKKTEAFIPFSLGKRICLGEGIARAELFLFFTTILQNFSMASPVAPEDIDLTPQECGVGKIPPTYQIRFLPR
endpointLabel: IC50 (µM)
# number only, unit µM dropped from output

Query: Report IC50, nothing else, for this compound: COc1cc(/C=C/C(=O)CC(=O)/C=C/c2ccc(O)c(OC)c2)ccc1O [curcumin]
Response: 30

====

molecular target: CYP2C19 (Homo sapiens, UniProt P33261); construct: native enzyme in human liver microsomes (IC50) or human-induced hepatocytes hiHeps (Km); experiment: human liver microsomes, cocktail probe assay, UPLC-MS/MS; assay type: biochemical; conditions: read-out: IC50 (μM) / HLM
Sequence (P33261 whole entry): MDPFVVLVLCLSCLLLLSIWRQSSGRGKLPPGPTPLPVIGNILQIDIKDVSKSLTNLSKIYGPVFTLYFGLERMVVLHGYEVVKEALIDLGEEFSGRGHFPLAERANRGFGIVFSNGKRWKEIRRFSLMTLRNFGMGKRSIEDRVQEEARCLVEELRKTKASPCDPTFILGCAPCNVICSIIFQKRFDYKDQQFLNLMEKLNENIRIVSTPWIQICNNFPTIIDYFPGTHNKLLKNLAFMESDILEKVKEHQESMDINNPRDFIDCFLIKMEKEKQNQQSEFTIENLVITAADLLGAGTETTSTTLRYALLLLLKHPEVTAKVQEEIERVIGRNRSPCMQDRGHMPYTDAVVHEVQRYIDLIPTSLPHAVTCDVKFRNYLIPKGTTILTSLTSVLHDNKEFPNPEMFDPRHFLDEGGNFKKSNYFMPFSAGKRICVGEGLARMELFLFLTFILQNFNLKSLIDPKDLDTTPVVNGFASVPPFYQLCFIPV
endpointLabel: IC50

Query: Report IC50, nothing else, for this compound: COc1cc(/C=C/C(=O)CC(=O)/C=C/c2ccc(O)c(OC)c2)ccc1O [curcumin]
Response: > 500 µM

====

molecular target: CYP3A4 (Homo sapiens); construct: native enzyme in human liver microsomes (IC50) or human-induced hepatocytes hiHeps (Km); read by midazolam to 1'-hydroxymidazolam (CYP3A5 may contribute); assay: human liver microsomes, cocktail probe assay, UPLC-MS/MS; format: biochemical; details: 10 μM midazolam in five-probe cocktail, NADPH, MgCl2, alamethicin, 37°C, 60 min; read-out: IC50 (μM) / HLM
Sequence (P08684 2-503): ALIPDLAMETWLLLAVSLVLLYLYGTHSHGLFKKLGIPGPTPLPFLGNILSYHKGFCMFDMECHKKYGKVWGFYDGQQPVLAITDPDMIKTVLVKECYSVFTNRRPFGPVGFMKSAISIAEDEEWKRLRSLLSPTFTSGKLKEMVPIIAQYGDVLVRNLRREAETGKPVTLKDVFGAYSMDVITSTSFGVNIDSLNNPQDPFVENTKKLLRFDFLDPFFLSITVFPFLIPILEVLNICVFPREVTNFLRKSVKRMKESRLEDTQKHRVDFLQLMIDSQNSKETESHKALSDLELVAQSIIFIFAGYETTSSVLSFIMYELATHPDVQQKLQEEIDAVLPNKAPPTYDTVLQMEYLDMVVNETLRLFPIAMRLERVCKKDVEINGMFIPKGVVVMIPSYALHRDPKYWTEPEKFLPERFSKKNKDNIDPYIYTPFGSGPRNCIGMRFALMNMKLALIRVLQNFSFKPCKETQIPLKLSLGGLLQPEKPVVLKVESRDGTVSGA
endpointLabel: IC50 (µM)
# number only, unit µM dropped from output

Query: Lab note: CYP3A4 (Homo sapiens) assay, enter IC50 for COc1cc(/C=C/C(=O)CC(=O)/C=C/c2ccc(O)c(OC)c2)ccc1O [curcumin] here
Response: 21
